# method: Viability Counterscreen for CMV-Luciferase Assay of Inhibitors of ATXN expression; also: nearly all actives have a fitted effect of over 55% in size; also: potency is read from the fitted curve at half-maximal effect
# test_settings: HEK-293 CMV-luciferase cells viability, protease fluorescence, 24 h
In all, about 2,100 compounds went through this assay and about 320 (15%) were called active. Inconclusive results (about 52%) are left out. The list shows a part of the results.
measured_metric: Potency

The examples below pair each entry with its known result.
molecule	result
O=C(Oc1c(CN2CCOCC2)cc(Cl)c2cccnc12)c1cccs1	inactive
CN(C)c1ccc(C(=O)N/N=C/c2cc(Br)cc(Br)c2O)cc1	inactive
O=c1ccc2ccccc2c2ccccc12	10 µM (active)
Cc1ccc(-c2ccc(/C=N/c3ncn[nH]3)o2)cc1Cl	inactive
CCOC(=O)[C@H]1[C@H]2COc3ccc(OC)cc3[C@@H]2N2C(=O)c3cc(OC)c(OC)cc3NC(=O)[C@@]12C	inactive
CCCc1cnc(NCCNCC(O)COc2ccc(Cl)c(Cl)c2)nc1 (stereo unspecified)	28.2 µM (active)

Sample Cn1c(S(=O)(=O)c2ccc([N+](=O)[O-])cc2)nc(Br)c1Br ; Potency observed: inactive

Sample CC(C)n1c(NCc2cc(Cl)ccc2O)nc2ccccc21 ; Potency observed: inactive

Sample O=c1cc(-c2ccncc2)oc2c1ccc1ccccc12 ; Potency observed: inactive

Sample Cc1nc2cc(NC(=O)CSc3nc4c(C)cccc4cc3C#N)ccc2s1 ; Potency observed: inactive

Sample COc1ccc(-c2csc(N(CCCN3CCOCC3)C(=O)c3ccco3)n2)cc1 ; Potency observed: inactive
